Experiment description: physchem
Measurement context: octanol/water
Description: Partition coefficient (logP)
Please note: 1 (yes) applies when logP is 4 or greater, and 0 (no) applies otherwise.

Reference set (3 entries):
| Structure as smiles | Class |
| --- | --- |
| Oc1cc2c(cc1Oc1ccccc1)OCC2 | 0 (no) |
| OCCc1ccccc1OCCCc1cc2c(cc1O)CCO2 | 0 (no) |
| CCCc1ccc(OCCCc2cc3c(cc2O)CCO3)cc1 | 1 (yes) |

Query string: For this molecule, is measured logP 4 or higher? `CCCc1cc2c(c(Br)c1O)CCO2`
Result string: 1 (yes)

Query string: I'd appreciate it if you could say whether `Oc1cc2c(cc1Sc1cccnc1)OCC2` has logP at least equal to 4.
Result string: 0 (no)
